tested on: T47D; assay: NCI tumour cell line growth inhibition, 48 h
Active and inactive are the calls of the source. Rule as the data show it: active = GI50 up to about 1.1 µM and inactive = higher.
GI50 values by entry

[[record]]
compound = "O=C(O)CN(CC(=O)O)c1ccccc1"
measured = "37.3 µM (inactive)"


Here OCC(O)C1OC2CC1Nc1ccccc1N2 (stereo unspecified) was tested on T47D, and its GI50 came to > 100 µM (inactive)

The compound COC(=O)/C=C\C(C#N)(C#N)/N=C/c1cccc(OC)c1 , when measured on T47D, yielded GI50 of 4.8 µM (inactive)

T47D data for CCCCCCCCCCCCCCCCCCNc1ccn(C2OC(COP(=O)(O)OC3CC(n4cc(F)c(=O)[nH]c4=O)OC3COP(=O)(O)OCC3OC(n4ccc(N)nc4=O)C(O)C3O)C(O)C2O)c(=O)n1 (stereo unspecified) ; its GI50: 24.5 µM (inactive)

Entry O=C1Cc2c([nH]c3ccccc23)C2(CC3CCCCN13)OCCO2 (stereo unspecified) , T47D data, GI50 value: > 100 µM (inactive)

Let me check: CCOC(=O)c1c(CN2CCNCC2)nc2ccc(Cl)cc2c1-c1ccccc1 , system T47D, measured GI50 is 4.82 µM (inactive)

Record C=C(C)CCC1C=[N+]([O-])OC(C)(C)C1(C)C (stereo unspecified) has T47D GI50 equal to > 100 µM (inactive)

The observed GI50 for C=C1C(=O)OC2/C=C(\CO)CC/C=C(\CO)CC(OC(=O)C(C)C)C12 (stereo unspecified) when tested with T47D stands at 4.72 µM (inactive)

Lab note: compound O=c1c(-c2ccccc2Cl)coc2cc(F)ccc12 tested on T47D; recorded GI50 was 45.1 µM (inactive)

Form field, GI50 with T47D, item COc1ccc(/C=C2\CCC(CNc3cc(C)on3)C2=O)cc1 (stereo unspecified) : 33 µM (inactive)

Lab note: compound CC(=O)Oc1ccc2cc(Oc3ccccc3)c(=O)oc2c1 tested on T47D; recorded GI50 was 36.1 µM (inactive)

// returns GI50 for Cc1ccc(S(=O)(=O)NC(=N)N(C)N=O)cc1 with T47D; value = > 100 µM (inactive)

Param item: COc1ncnc2c1cnn2Cc1cn(CCCCO)nn1 ; param system: T47D; output GI50: > 100 µM (inactive)

// assay T47D, entry CC(=O)O[C@H]1CCC2[C@@H]3CCC4Cc5nc6c(nc5C[C@]4(C)C3CC[C@@]21C)CC1CC[C@@H]2C(CC[C@@]3(C)C2CC[C@@H]3C(C)CCCC(C)C)[C@@]1(C)C6 (stereo partly specified) , GI50 value = > 100 µM (inactive)

The compound O=C1c2cc([N+](=O)[O-])ccc2-c2ccc3c4ccc5c6c(ccc(c7ccc1c2c73)c64)C(=O)c1cc([N+](=O)[O-])ccc1-5 on T47D: GI50 was > 100 µM (inactive)

Kindly note: T47D, NCCCN(CCCCN(CCCN)Cc1ccccc1)Cc1ccccc1 , GI50 value reported: > 100 µM (inactive)

###

system: HCC 2998; assay: NCI tumour cell line growth inhibition, 48 h
The source made the active and inactive calls. Cut-off read from the data, not from the text of the source: active = GI50 up to about 1.1 µM and inactive = higher.
Permitted responses: 1 (active), -1 (inactive)

Before answering, review these 5 worked examples.
[[record]]
compound = "CCC1(O)C(=O)OCc2c1cc1n(c2=O)Cc2c-1nc1ccccc1c2OC (stereo unspecified)"
assigned_label = 1

[[record]]
compound = "COC(=O)CC(=O)OC"
assigned_label = -1

[[record]]
compound = "COc1ccc2o/c(=N/c3ccccc3)c(C(N)=O)cc2c1"
assigned_label = -1

[[record]]
compound = "COc1ccc(/C=C/c2cc(OC)c(OC)c(OC)c2)cc1OC"
assigned_label = -1

[[record]]
compound = "O=C(O)c1cc(NCc2cc(O)ccc2O)ccc1O [LAVENDUSTIN C]"
assigned_label = -1


Note: attention shifts to another entry.
Per the records of this test, what outcome belongs to CSc1ccccc1P(CCP(c1ccccc1SC)c1ccccc1SC)c1ccccc1SC ?
-1
